Target: UniProt:O42275
Assay: In vitro AChE inhibition, modified Ellman's method
Assay type: biochemical
Details: read-out: % of AChE inhibition

compound | testSystem | inhibition at 10000 µM [%]
Cc1ccccc1Cn1cc(COCc2cnc(C)c(O)c2CO)nn1 [Compound 5d] | UniProt:O42275 | 86
Cc1cccc(Cn2cc(COCc3cnc(C)c(O)c3CO)nn2)c1 [Compound 5c] | UniProt:O42275 | 81.9
Cc1ncc(COCc2cn(Cc3cc(F)cc(F)c3)nn2)c(CO)c1O [Compound 5i] | UniProt:O42275 | 77.9

----------
pIC50: −log10 of the molar value.
pIC50 tested on AChE from electric eel (EeAChE) (Electrophorus electricus, UniProt O42275): recorded values
Sequence (O42275 24-633): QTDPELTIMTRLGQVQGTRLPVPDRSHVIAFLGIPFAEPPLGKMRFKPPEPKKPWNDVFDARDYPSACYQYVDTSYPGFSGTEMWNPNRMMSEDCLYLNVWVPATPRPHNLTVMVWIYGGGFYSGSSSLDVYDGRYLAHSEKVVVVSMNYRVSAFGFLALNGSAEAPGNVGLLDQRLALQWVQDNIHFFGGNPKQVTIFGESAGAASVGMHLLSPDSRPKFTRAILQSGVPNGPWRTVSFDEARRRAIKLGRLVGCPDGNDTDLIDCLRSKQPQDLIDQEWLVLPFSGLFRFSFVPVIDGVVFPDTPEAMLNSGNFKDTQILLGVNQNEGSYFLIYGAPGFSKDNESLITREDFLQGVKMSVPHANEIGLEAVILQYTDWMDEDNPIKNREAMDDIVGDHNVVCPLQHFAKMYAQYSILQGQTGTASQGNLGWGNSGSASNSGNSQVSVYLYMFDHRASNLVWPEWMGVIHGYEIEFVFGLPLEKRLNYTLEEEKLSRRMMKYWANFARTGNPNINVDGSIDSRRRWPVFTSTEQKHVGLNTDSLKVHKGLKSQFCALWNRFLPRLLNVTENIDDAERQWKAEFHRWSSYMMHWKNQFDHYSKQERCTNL

compound | testSystem | censoringSign | pIC50
Cc1ncc(COCc2cn(Cc3ccccc3C(F)(F)F)nn2)c(CO)c1O [Compound 5q] | AChE from electric eel (EeAChE) (Electrophorus electricus, UniProt O42275) | = | 2.95
COc1cc(Cn2cc(COCc3cnc(C)c(O)c3CO)nn2)cc(OC)c1 [Compound 5f] | AChE from electric eel (EeAChE) (Electrophorus electricus, UniProt O42275) | = | 2.58
Cc1ncc(COCc2cn(Cc3ccc(Cl)c(Cl)c3)nn2)c(CO)c1O [Compound 5l] | AChE from electric eel (EeAChE) (Electrophorus electricus, UniProt O42275) | = | 2.47
Cc1ncc(COCc2cn(Cc3cc(F)cc(F)c3)nn2)c(CO)c1O [Compound 5i] | AChE from electric eel (EeAChE) (Electrophorus electricus, UniProt O42275) | = | 2.81
Cc1ncc(COCc2cn(Cc3ccc(Cl)cc3)nn2)c(CO)c1O [Compound 5j] | AChE from electric eel (EeAChE) (Electrophorus electricus, UniProt O42275) | = | 2.57
Cc1ncc(COCc2cn(Cc3ccc(Br)cc3)nn2)c(CO)c1O [Compound 5m] | AChE from electric eel (EeAChE) (Electrophorus electricus, UniProt O42275) | = | 2.50
Cc1ncc(COCc2cn(Cc3ccccc3)nn2)c(CO)c1O [Compound 5a] | AChE from electric eel (EeAChE) (Electrophorus electricus, UniProt O42275) | < | 2.00

----------
Assay: Antioxidant assay, ORAC-FL method
Settings: compound and Trolox at 8 μM, 37 °C, three independent experiments

compound | ORAC index ± SEM (Trolox equivalents)
Cc1ncc(COCc2cn(Cc3cccc(C(F)(F)F)c3)nn2)c(CO)c1O | 0.8718
Cc1ncc(CO)c(CO)c1O [Pyridoxine, reference compound] | 0.5249
Cc1ncc(COCc2cn(Cc3cccc(F)c3)nn2)c(CO)c1O | 2.1015
Cc1cccc(Cn2cc(COCc3cnc(C)c(O)c3CO)nn2)c1 | 2.0164
